# measured-target: human DCN1 (residues 58–259), N-terminal His6 tag (human, UniProt Q96GG9 58-259)
# Sequence (Q96GG9 58-259): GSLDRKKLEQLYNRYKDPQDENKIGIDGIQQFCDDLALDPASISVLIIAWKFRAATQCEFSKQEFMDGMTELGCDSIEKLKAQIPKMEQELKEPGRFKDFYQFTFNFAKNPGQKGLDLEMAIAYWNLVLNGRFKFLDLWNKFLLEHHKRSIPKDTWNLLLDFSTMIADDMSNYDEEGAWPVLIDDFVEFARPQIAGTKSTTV
# test-summary: FP
pKi: −log10 of the molar value.
Assign true to entries whose pKi meets or exceeds 4; assign false to the rest.

>>> df
                                     binder  assigned_label
0  MIKLFSLKQQK [UBC12 peptide 2 (peptide 1 without Lys12)]            true

Please examine the following record next.
Query :: Say whether YIKL [analog of 11 with p-OH substitution of the phenyl] shows pKi of 4 or more.
Result :: false
